Target: PKR WT (Homo sapiens)
Experiment: PKR WT enzymatic AC50 assay
Type: biochemical
Conditions: wild type PKR
observable: AC50

Known results for compounds:
O=C(c1ccc(NS(=O)(=O)c2cccc3cccnc23)c(OC(F)F)c1)N1CCC(O)(c2ccccc2Cl)CC1 [Compound 263]; 0.101 to 1 µM
O=C(c1ccc(NS(=O)(=O)c2cccc3snnc23)cc1)N1CCC(O)(c2ccccc2Cl)CC1 [Compound 417]; 1.01 to 10 µM
O=C(c1ccc(NS(=O)(=O)c2cccc3cccnc23)cc1)N1CCC(O)(c2ncccc2F)CC1 [Compound 148]; < 0.1 µM
CC1(CC2(O)CCN(C(=O)c3ccc(NS(=O)(=O)c4cccc5scnc45)cc3)CC2)CC1 [Compound 132]; < 0.1 µM
O=C(c1ccc(NS(=O)(=O)c2cccc3cccnc23)cc1)N1CCC(O)(c2ccccc2Cl)CC1 [Compound 122]; < 0.1 µM
CCC1(O)CCN(C(=O)c2ccc(NS(=O)(=O)c3cccc4cccnc34)cc2)CC1 [Compound 267]; 0.101 to 1 µM
O=C(c1ccc(NS(=O)(=O)c2cccc3nccnc23)cc1)N1CCC(O)(Cc2ccccc2C(F)(F)F)CC1 [Compound 114]; < 0.1 µM
Cc1nc(C(=O)N2CCC(O)(c3ccccc3Cl)CC2)ccc1NS(=O)(=O)c1cccc2cccnc12 [Compound 210]; < 0.1 µM
O=C(c1ccc(NS(=O)(=O)c2cccc3cccnc23)cc1OC(F)F)N1CCC(O)(c2ccccc2Cl)CC1 [Compound 151]; < 0.1 µM
Cc1nc(C2(O)CCN(C(=O)c3ccc(NS(=O)(=O)c4cccc5cccnc45)cc3)CC2)ccc1F [Compound 171]; < 0.1 µM

// query Look at this compound and give its reported AC50. Cc1cc(C(=O)N2CCC(O)(Cc3ccccc3)CC2)ccc1NS(=O)(=O)c1cccc2cccnc12 [Compound 101]
// result < 0.1 µM

// query Quick check: AC50 of O=C(c1ccc(NS(=O)(=O)c2cccc3cccnc23)cc1)N1CCC(O)(c2cccnc2F)CC1 [Compound 217] ?
// result < 0.1 µM

// query What value of measured AC50 is listed for O=C(c1ccc(NS(=O)(=O)c2cccc3cccnc23)c2ccccc12)N1CCC(O)(c2ccccc2Cl)CC1 [Compound 226] ?
// result < 0.1 µM

* * *

Molecular target: PKR WT (Homo sapiens)
Test: PKR WT enzymatic AC50 assay
Assay type: biochemical
Conditions: wild type PKR
AC50 by entry:

// query Quick check: AC50 of `CNc1nc2c(S(=O)(=O)Nc3ccc(C(=O)N4CCC(O)(c5ccccc5Cl)CC4)cc3)cccc2s1` ?
// result < 100 nM

// query Can you share its AC50? I mean this compound: `CC(C)CC1(O)CCN(C(=O)c2ccc(NS(=O)(=O)c3cccc4snnc34)cc2)CC1`
// result > 10000 nM

// query AC50 for `CC(C)CC1(O)CCN(C(=O)c2ccc(NS(=O)(=O)c3cc(F)cc4scnc34)cc2)CC1` ?
// result < 100 nM

// query I have this compound here, `CC(C)CC1(O)CCN(C(=O)c2ccc(NS(=O)(=O)c3c(F)ccc4ncsc34)cc2)CC1` , and I need its recorded AC50.
// result 1010 to 10000 nM

// query Given the compound `COc1cccc(CC2(O)CCN(C(=O)c3ccc(NS(=O)(=O)c4cccc5cccnc45)cc3)CC2)c1` , what is its reported AC50?
// result < 100 nM

// query Suppose we examine the compound `Cc1nc2c(S(=O)(=O)Nc3ccc(C(=O)N4CCC(O)(c5ccccc5Cl)CC4)cc3)cccc2o1` ; what AC50 value has been reported?
// result < 100 nM

* * *

Target: PKR WT (Homo sapiens)
Experiment: PKR WT cell based AC50 assay
Settings: wild type PKR
observable: AC50

Examples from the recorded data:
O=C(c1ccc(NS(=O)(=O)c2cccc3cccnc23)cc1)N1CCC(O)(c2cccc(F)c2)CC1 [Compound 142]; < 0.1 µM
O=C(c1ccc(NS(=O)(=O)c2cccc3cccnc23)cc1)N1CCC(O)(Cc2cccc(C(F)(F)F)c2)CC1 [Compound 152]; 0.101 to 1 µM
O=C(c1ccc(NS(=O)(=O)c2cccc3cccnc23)cc1)N1CCC(O)(c2ccccc2O)CC1 [Compound 228]; < 0.1 µM
Cc1cc(C(=O)N2CCC(O)(c3cccc(F)c3F)CC2)ccc1NS(=O)(=O)c1cccc2nccnc12 [Compound 175]; < 0.1 µM
Cc1cc(NS(=O)(=O)c2cccc3cccnc23)ccc1C(=O)N1CCC(O)(c2ccccc2Cl)CC1 [Compound 141]; < 0.1 µM
O=C(c1ccc(NS(=O)(=O)c2cccc3cccnc23)cc1)N1CCC(O)(CC2CCC2)CC1 [Compound 124]; < 0.1 µM
O=C(c1ccc(NS(=O)(=O)c2cccc3cccnc23)cc1)N1CCC(O)(Cc2cccc(F)n2)CC1 [Compound 146]; < 0.1 µM
O=C(c1ccc(NS(=O)(=O)c2cccc3scnc23)cc1)N1CCC(O)(c2ccccc2Cl)CC1 [Compound 155]; < 0.1 µM
O=C(c1ccc(NS(=O)(=O)c2cccc3cccnc23)cc1)N1CCC(O)(Cc2cccc(F)c2F)CC1 [Compound 169]; < 0.1 µM
O=C(c1ccc(NS(=O)(=O)c2cccc3c(O)ncnc23)cc1)N1CCC(O)(CCCC(F)(F)F)CC1 [Compound 427]; < 0.1 µM

Attention now shifts to the item below.
// query Which AC50 value belongs to Cc1cc(C(=O)N2CCC(O)(Cc3ccccc3)CC2)ccc1NS(=O)(=O)c1cccc2cccnc12 [Compound 101] ?
// result < 0.1 µM

* * *

Molecular target: PKR R532W (Homo sapiens, UniProt P30613, R532W)
Sequence (P30613 whole entry R532W): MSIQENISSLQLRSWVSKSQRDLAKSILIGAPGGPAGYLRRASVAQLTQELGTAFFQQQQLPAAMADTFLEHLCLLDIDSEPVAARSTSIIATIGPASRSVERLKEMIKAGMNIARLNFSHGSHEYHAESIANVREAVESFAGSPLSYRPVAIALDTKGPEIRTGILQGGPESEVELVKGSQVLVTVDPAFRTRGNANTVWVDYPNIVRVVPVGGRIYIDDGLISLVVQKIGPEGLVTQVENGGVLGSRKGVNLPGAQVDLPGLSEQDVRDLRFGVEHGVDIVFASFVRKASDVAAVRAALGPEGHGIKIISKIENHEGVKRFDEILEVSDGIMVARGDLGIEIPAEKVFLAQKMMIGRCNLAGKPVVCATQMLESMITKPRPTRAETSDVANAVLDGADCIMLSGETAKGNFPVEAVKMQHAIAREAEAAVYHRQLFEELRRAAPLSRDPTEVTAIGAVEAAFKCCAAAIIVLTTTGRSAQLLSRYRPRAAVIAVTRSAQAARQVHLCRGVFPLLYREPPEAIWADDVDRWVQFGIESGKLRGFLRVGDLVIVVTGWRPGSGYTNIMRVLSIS
Assay: PKR Mutant Assay, AC50 against PKR R532W
Format: biochemical
Details: mutant PKR R532W enzyme
observable: AC50

// query Give the measured AC50 of `O=C(c1ccc(NS(=O)(=O)c2cccc3cccnc23)cc1)N1CCC(O)(c2cccnc2F)CC1` .
// result 101 to 1000 nM

// query Look up AC50: `O=C(c1ccc(NS(=O)(=O)c2cccc3csnc23)cc1)N1CCC(O)(c2ccccc2Cl)CC1`
// result 101 to 1000 nM

// query I'd like to know its AC50. The compound in question is `Nc1nc2c(S(=O)(=O)Nc3ccc(C(=O)N4CCC(O)(c5ccccc5Cl)CC4)cc3)cc(F)cc2s1`
// result < 100 nM

* * *

Here, each record is paired with measured AC50 data.
Biological target: PKR R510Q (Homo sapiens, UniProt P30613, R510Q)
Sequence (P30613 whole entry R510Q): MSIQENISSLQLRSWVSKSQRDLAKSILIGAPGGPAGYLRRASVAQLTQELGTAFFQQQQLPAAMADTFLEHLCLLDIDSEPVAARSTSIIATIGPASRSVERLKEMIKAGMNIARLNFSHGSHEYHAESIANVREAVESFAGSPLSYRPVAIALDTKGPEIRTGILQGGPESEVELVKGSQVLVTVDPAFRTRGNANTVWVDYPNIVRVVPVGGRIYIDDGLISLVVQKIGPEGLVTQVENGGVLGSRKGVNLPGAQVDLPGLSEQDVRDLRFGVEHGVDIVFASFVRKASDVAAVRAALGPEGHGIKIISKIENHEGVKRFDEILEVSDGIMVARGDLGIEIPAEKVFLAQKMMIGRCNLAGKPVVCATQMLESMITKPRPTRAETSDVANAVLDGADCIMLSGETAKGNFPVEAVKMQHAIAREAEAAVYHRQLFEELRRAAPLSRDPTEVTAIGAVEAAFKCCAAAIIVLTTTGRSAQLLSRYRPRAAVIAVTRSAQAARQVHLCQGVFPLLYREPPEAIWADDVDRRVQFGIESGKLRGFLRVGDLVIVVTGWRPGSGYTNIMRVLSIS
Assay: PKR Mutant Assay, AC50 against PKR R510Q
Assay type: biochemical
Details: mutant PKR R510Q enzyme
Description: • PKR or PKR mutant enzyme solution was diluted in assay buffer. • 2 μL of test compound was added into wells first, and then 180 μL reaction mix was added. • Reactions mixture with test compound was assembled except for ADP, and plates were stored for 60 minutes at room temperature. • 20 uL ADP was added to start reaction at room temperature and reaction progress was measured as changes in absorbance at 340 nm wavelength at room temperature. […]

The following molecules have reported results that may help.
O=C(c1ccc(NS(=O)(=O)c2ccc(F)c3cccnc23)c(F)c1)N1CCC(O)(c2cccc(F)c2F)CC1; 1010 to 10000 nM
CCOC(=O)C1(CC(C)C)CCN(C(=O)c2ccc(NS(=O)(=O)c3cccc4cccnc34)cc2)CC1; 1010 to 10000 nM

// query Could you tell me which AC50 is on file for `O=C(c1ccc(NS(=O)(=O)c2cc(F)cc3cccnc23)cc1)N1CCC(O)(c2ccccc2)CC1` ?
// result 101 to 1000 nM

* * *

Target: PKR R510Q (Homo sapiens, UniProt P30613, R510Q)
Test: PKR Mutant Assay, AC50 against PKR R510Q
Assay type: biochemical
Settings: mutant PKR R510Q enzyme
Quick reference: AC50 of the listed items.

O=C(c1ccc(NS(=O)(=O)c2cccc3nccnc23)cc1)N1CCC(O)(c2ccccc2)CC1; 1010 to 10000 nM
O=C(c1ccc(NS(=O)(=O)c2cccc3nccnc23)cc1)N1CCC(O)(CC2CC2)CC1; 101 to 1000 nM
O=C(c1ccc(NS(=O)(=O)c2cccc3cccnc23)cc1)N1CCC(O)(CC2CCC2)CC1; < 100 nM
Cc1cc(C(=O)N2CCC(O)(c3ccccc3Cl)CC2)ccc1NS(=O)(=O)c1cccc2nccnc12; < 100 nM
O=C(c1ccc(NS(=O)(=O)c2cccc3ccccc23)cc1)N1CCC(O)(c2ccccc2Cl)CC1; 101 to 1000 nM

// query // lookup AC50 for `O=C(c1ccc(NS(=O)(=O)c2cccc3nccnc23)cc1)N1CCC(O)(Cc2ccccc2C(F)(F)F)CC1`
// result < 100 nM

// query What value of measured AC50 is listed for CC(O)CC1(O)CCN(C(=O)c2ccc(NS(=O)(=O)c3cccc4cccnc34)cc2)CC1 (stereo not shown) ?
// result 1010 to 10000 nM

* * *

Biological target: PKR WT (Homo sapiens, UniProt P30613)
Sequence (P30613 whole entry): as the sequence (P30613 whole entry R532W) above, with W532R counted along it
Experiment: PKR WT enzymatic AC50 assay
Assay type: biochemical
Details: wild type PKR
Measured AC50 values are reported for all entries that follow.

These recorded examples may help you get a feel for the data.
O=C(c1ccc(NS(=O)(=O)c2cccc3cccnc23)cc1)N1CCC(O)(Cc2ccccc2C(F)(F)F)CC1 [Compound 109]; < 100 nM
O=C(c1ccc(NS(=O)(=O)c2cccc3cccnc23)cc1)N1CCC(C(=O)O)(c2ccccc2)CC1 [Compound 320]; > 10000 nM

// query Need AC50 of N#Cc1cccc(S(=O)(=O)Nc2ccc(C(=O)N3CCC(O)(Cc4ccccc4)CC3)cc2)c1 [Compound 317] , thanks.
// result > 10000 nM

// query Sample CC(C)CC1(O)CCN(C(=O)c2ccc(NS(=O)(=O)c3cccc4cccnc34)c(C(F)F)c2)CC1 [Compound 258] — what was its AC50?
// result 101 to 1000 nM

// query Look up AC50 for this compound: O=C(c1ccc(NS(=O)(=O)c2cccc3scnc23)cc1)N1CCC(O)(CCC(F)(F)F)CC1 [Compound 233]
// result 101 to 1000 nM

// query Can you share its AC50? I mean this compound: O=C(c1ccc(NS(=O)(=O)c2cccc3cccnc23)cc1)N1CCC(O)(Cc2cccc(F)c2)CC1 [Compound 105]
// result < 100 nM

// query Any idea what AC50 was measured for COc1ccccc1CC1(O)CCN(C(=O)c2ccc(NS(=O)(=O)c3cccc4cccnc34)cc2)CC1 [Compound 116] ?
// result < 100 nM

// query Could you tell me which AC50 is on file for O=C(c1ccc(NS(=O)(=O)c2cccc3cccnc23)cc1)N1CCC(O)(c2ccccc2C(F)(F)F)CC1 [Compound 126] ?
// result < 100 nM

// query Dear colleague, I am looking for the recorded AC50 of the following compound: O=C(c1ccc(NS(=O)(=O)c2cccc3nccnc23)cc1)N1CCC(O)(CCC=C(F)F)CC1 [Compound 399]
// result < 100 nM
